Molecular target: feline FcRn complex (FcRn-α subunit and β-microglobulin) (feline)
Test: SPR (Biacore), FcRn on SA chip, pH 7.4
Attribute: pKd
Please treat pKd as minus the base-10 logarithm of the molar concentration.

binder	pKd
feline IgG1a mutant ID No. 280: S252R, S434Y, Q311W (antibody, part only; not given: Variable domains, not shown: another chain or arm of the molecule) constant: ASTTAPSVFPLAPSCGTTSGATVALACLVLGYFPEPVTVSWNSGALTSGVHTFPAVLQASGLYSLSSMVTVPSSRWLSDTFTCNVAHPPSNTKVDKTVRKTDHPPGPKPCDCPKCPPPEMLGGPSIFIFPPKPKDTLRISRTPEVTCLVVDLGPDDSDVQITWFVDNTQVYTAKTSPREEQFNSTYRVVSVLPILHWDWLKGKEFKCKVNSKSLPSPIERTISKAKGQPHEPQVYVLPPAQEELSRNKVSVTCLIKSFHPPDIAVEWEITGQPEPENNYRTTPPQLDSDGTYFVYSKLSVDRSHWQRGNTYTCSVSHEALHYHHTQKSLTQSPGK	5.36

API: the following record is the query input.
Identify measured pKd associated with feline IgG1a mutant ID No. 363: S252Y, S434R, D399T (antibody, part only; not given: Variable domains, not shown: another chain or arm of the molecule) constant: ASTTAPSVFPLAPSCGTTSGATVALACLVLGYFPEPVTVSWNSGALTSGVHTFPAVLQASGLYSLSSMVTVPSSRWLSDTFTCNVAHPPSNTKVDKTVRKTDHPPGPKPCDCPKCPPPEMLGGPSIFIFPPKPKDTLYISRTPEVTCLVVDLGPDDSDVQITWFVDNTQVYTAKTSPREEQFNSTYRVVSVLPILHQDWLKGKEFKCKVNSKSLPSPIERTISKAKGQPHEPQVYVLPPAQEELSRNKVSVTCLIKSFHPPDIAVEWEITGQPEPENNYRTTPPQLTSDGTYFVYSKLSVDRSHWQRGNTYTCSVSHEALHRHHTQKSLTQSPGK
7.41
